biological target: VIM-1 (Pseudomonas aeruginosa (strain ATCC 15692 / DSM 22644 / CIP 104116 / JCM 14847 / LMG 12228 / 1C / PRS 101 / PAO1)); experiment: biochemical; conditions: CCF2-FA substrate, 2 hours at 25° C
Entries and their IC50
Quantity Kind: IC50 (nM)

> print(dat)
                                    compound    val
 1  CS(=O)(=O)c1ccc(-c2ccc(C3CCNCC3)cc2)c(-c2nnn[nH]2)c1S(N)(=O)=O [Example 236]  0.127
 2  Nc1n[nH]c2cc(-c3ccc(S(=O)(=O)C4CNC4)c(S(N)(=O)=O)c3-c3nn[nH]n3)ccc12 [Example 20]  0.168
 3  NCCNC(=O)c1cccc(-c2ccc(S(=O)(=O)CCN)c(S(N)(=O)=O)c2-c2nn[nH]n2)c1N [Example 378]  0.544
 4  CC(=O)Nc1ccc(-c2ccc(S(=O)(=O)CCN)c(S(N)(=O)=O)c2-c2nnn[nH]2)cn1.O=C(O)C(F)(F)F [Example 135, 2,2,2-trifluoroacetate]   1.22
 5  NC[C@H](O)CS(=O)(=O)c1ccc(-c2ccc(N)nc2)c(-c2nn[nH]n2)c1S(N)(=O)=O [Example 365]  0.632
 6  CS(=O)(=O)c1ccc(-c2cnc3ccccn23)c(-c2nn[nH]n2)c1S(N)(=O)=O [Example 238]  0.201
 7  NS(=O)(=O)c1cccc(-c2ccc(S(=O)(=O)C3CNC3)c(S(N)(=O)=O)c2-c2nn[nH]n2)c1 [Example 247]   1.83
 8  Cc1ccc(-c2ccc(S(=O)(=O)CCN)c(S(N)(=O)=O)c2-c2nn[nH]n2)c2nc(N)sc12 [Example 80]   0.11
 9  CS(=O)(=O)Nc1nc2c(-c3ccc(S(=O)(=O)C4CCNCC4)c(S(N)(=O)=O)c3-c3nn[nH]n3)cccc2s1 [Example 325]  0.346
10  NCCS(=O)(=O)c1ccc(-c2cccc3sc(C(N)=O)nc23)c(-c2nn[nH]n2)c1S(N)(=O)=O [Example 89]  0.152
11  NS(=O)(=O)c1c(S(=O)(=O)C2CNC2)ccc(-c2cccc3[nH]c(C(=O)NCC(=O)O)nc23)c1-c1nn[nH]n1 [Example 257]  0.428
12  NS(=O)(=O)c1c(S(=O)(=O)C2CNC2)ccc(-c2cnc(N3CCCC3)s2)c1-c1nnn[nH]1.O=C(O)C(F)(F)F [Example 121, 2,2,2-trifluoroacetate]   1.44
13  Nc1nc2c(-c3ccc(S(=O)(=O)[C@@H]4CN[C@H](CO)C4)c(S(N)(=O)=O)c3-c3nn[nH]n3)cccc2s1 [Example 349]  0.452
14  NCCS(=O)(=O)c1ccc(-c2ccc(CO)nc2)c(-c2nnn[nH]2)c1S(N)(=O)=O.O=C(O)C(F)(F)F [Example 145, 2,2,2-trifluoroacetate]   1.25
15  NCCS(=O)(=O)c1ccc(-c2ccc(C3CCNCC3)cc2)c(-c2nn[nH]n2)c1S(N)(=O)=O [Example 322]  0.205
16  Cn1c(N)nc2c(-c3ccc(S(=O)(=O)CCN)c(S(N)(=O)=O)c3-c3nn[nH]n3)cccc21 [Example 79]  0.327
17  Nc1nc2c(-c3ccc(S(=O)(=O)C4CCNCC4)c(S(N)(=O)=O)c3-c3nn[nH]n3)cccc2[s+]1[O-] (centres unmarked) [Example 316]  0.779
18  NS(=O)(=O)c1c(S(=O)(=O)C2CNC2)ccc(-c2cccc3c2C(=O)NS3(=O)=O)c1-c1nn[nH]n1 [Example 249]  0.322
19  NS(=O)(=O)c1c(S(=O)(=O)C2CNC2)ccc(-c2csc(N3CCOCC3)n2)c1-c1nnn[nH]1.O=C(O)C(F)(F)F [Example 124, 2,2,2-trifluoroacetate]   4.95
20  NC[C@@H](O)CS(=O)(=O)c1ccc(-c2ccc(N)nc2)c(-c2nn[nH]n2)c1S(N)(=O)=O [Example 364]  0.875

---

# Efflux ratio listing for each entry below
test system: P. aeruginosa expressing IMP-1, efflux+ (MB9798); type: cell-based, Pseudomonas aeruginosa; details: ratio MITC95 PA_9798/MITC95 PA_9799
Quantity Kind: Efflux ratio

> print(dat)
                                    molecule                           subject.of.test    val
 1  NS(=O)(=O)c1c(S(=O)(=O)C2CNC2)ccc(-c2cccn3cncc23)c1-c1nnn[nH]1 [Example 60]  P. aeruginosa expressing IMP-1, efflux+ (MB9798)   4.00
 2  Cn1c(N)nc2c(-c3ccc(S(C)(=O)=O)c(S(N)(=O)=O)c3-c3nn[nH]n3)cccc21 [Example 192]  P. aeruginosa expressing IMP-1, efflux+ (MB9798)   4.00
 3  Nc1cnccc1-c1ccc(S(=O)(=O)C2CNC2)c(S(N)(=O)=O)c1-c1nnn[nH]1.O=C(O)C(F)(F)F [Example 105]  P. aeruginosa expressing IMP-1, efflux+ (MB9798)   2.00
 4  NS(=O)(=O)c1c(S(=O)(=O)C2CNC2)ccc(-c2cnc3ccccn23)c1-c1nn[nH]n1 [Example 9]  P. aeruginosa expressing IMP-1, efflux+ (MB9798)   4.00
 5  Nc1nc2cc(-c3ccc(S(=O)(=O)C4CNC4)c(S(N)(=O)=O)c3-c3nn[nH]n3)ccn2n1 [Example 217]  P. aeruginosa expressing IMP-1, efflux+ (MB9798)   8.00
 6  NS(=O)(=O)c1c(S(=O)(=O)C2CCNCC2)ccc(-c2ccc(C3CCNCC3)cc2)c1-c1nnn[nH]1 [Example 228]  P. aeruginosa expressing IMP-1, efflux+ (MB9798)   1.00
 7  NC(=O)c1nc2c(-c3ccc(S(=O)(=O)C4CNC4)c(S(N)(=O)=O)c3-c3nn[nH]n3)cccc2[nH]1 [Example 254]  P. aeruginosa expressing IMP-1, efflux+ (MB9798)   2.00
 8  NCCCS(=O)(=O)c1ccc(-c2cccc3[nH]cnc23)c(-c2nn[nH]n2)c1S(N)(=O)=O [Example 354]  P. aeruginosa expressing IMP-1, efflux+ (MB9798)   1.00
 9  NCCS(=O)(=O)c1ccc(-c2ccc3[nH]ncc3c2)c(-c2nnn[nH]2)c1S(N)(=O)=O.O=C(O)C(F)(F)F [Example 167]  P. aeruginosa expressing IMP-1, efflux+ (MB9798)   8.00
10  Nc1nc2c(-c3ccc(S(=O)(=O)[C@H]4C[C@@H](N)C4)c(S(N)(=O)=O)c3-c3nn[nH]n3)cccc2s1 [Example 180]  P. aeruginosa expressing IMP-1, efflux+ (MB9798)   1.00
11  NCCS(=O)(=O)c1ccc(-c2ccccc2NC(=O)CN)c(-c2nn[nH]n2)c1S(N)(=O)=O [Example 340]  P. aeruginosa expressing IMP-1, efflux+ (MB9798)   4.00
12  NS(=O)(=O)c1c(S(=O)(=O)[C@H]2CCNC2)ccc(-c2cccc3nc(C(=O)O)[nH]c23)c1-c1nn[nH]n1 [Example 290]  P. aeruginosa expressing IMP-1, efflux+ (MB9798)   4.00
13  NCCS(=O)(=O)c1ccc(-c2cccc3[nH]c(=O)[nH]c23)c(-c2nnn[nH]2)c1S(N)(=O)=O.O=C(O)C(F)(F)F [Example 150]  P. aeruginosa expressing IMP-1, efflux+ (MB9798)   1.00
14  Nc1nc2cccc(-c3ccc(S(=O)(=O)C4CCNCC4)c(S(N)(=O)=O)c3-c3nn[nH]n3)c2[nH]1 [Example 42]  P. aeruginosa expressing IMP-1, efflux+ (MB9798)   1.00
15  NCCS(=O)(=O)c1ccc(-c2cccc(S(=O)(=O)NC3CC3)c2)c(-c2nnn[nH]2)c1S(N)(=O)=O.O=C(O)C(F)(F)F [Example 161]  P. aeruginosa expressing IMP-1, efflux+ (MB9798)  31.99
16  NCCS(=O)(=O)c1ccc(-c2cccc3sc(CN)nc23)c(-c2nn[nH]n2)c1S(N)(=O)=O [Example 87]  P. aeruginosa expressing IMP-1, efflux+ (MB9798)   2.00
17  Nc1nc2c(-c3ccc(S(=O)(=O)c4cccc(C(F)(F)F)c4)c(S(N)(=O)=O)c3-c3nn[nH]n3)cccc2s1 [Example 250]  P. aeruginosa expressing IMP-1, efflux+ (MB9798)  64.00
18  NCCS(=O)(=O)c1ccc(-c2cccc3ccc(N)nc23)c(-c2nn[nH]n2)c1S(N)(=O)=O [Example 71]  P. aeruginosa expressing IMP-1, efflux+ (MB9798)   1.00
19  NS(=O)(=O)c1c(S(=O)(=O)C2CCNCC2)ccc(-c2cccc3c2CNC3=O)c1-c1nn[nH]n1 [Example 318]  P. aeruginosa expressing IMP-1, efflux+ (MB9798)   4.00
20  Nc1nc2cccc(-c3ccc(S(=O)(=O)C4CNC4)c(S(N)(=O)=O)c3-c3nn[nH]n3)n2n1 [Example 214]  P. aeruginosa expressing IMP-1, efflux+ (MB9798)   2.00
21  CS(=O)(=O)c1ccc(-c2ccc(NS(=O)(=O)C3CC3)cc2)c(-c2nn[nH]n2)c1S(N)(=O)=O [Example 241]  P. aeruginosa expressing IMP-1, efflux+ (MB9798)   8.00

These entries and their values trace back to patent US10227331B2.
